conditions: in methanol, 284.75 K
readoutName: solubility (mole fraction)

Exam item: For the molecule Cc1ccc(C)c(O)c1 , report solubility (mole fraction).
Marked response: 0.291

---

conditions: in methanol, 321.15 K
readoutName: solubility (mole fraction)
Would you mind answering with just the numeric figure?

Exam item: For the compound Cc1ccc(C)c(O)c1 , report solubility (mole fraction).
Marked response: 0.563

---

conditions: in n-hexanol, 293.25 K
readoutName: solubility (mole fraction)
Would you mind answering with just the numeric figure?

Exam item: For the compound Cc1ccc(C)c(O)c1 , report solubility (mole fraction).
Marked response: 0.378

---

conditions: in n-butanol, 294.45 K
readoutName: solubility (mole fraction)
Would you mind answering with just the numeric figure?

Exam item: For the compound Cc1ccc(C)c(O)c1 , report solubility (mole fraction).
Marked response: 0.38

Data provenance: BigSolDB 2.1
